system.name: Flap endonuclease 1 (Homo sapiens)
test: qHTS Assay for the Inhibitors of Human Flap endonuclease 1 (FEN1). Further: nearly all actives have a fitted effect of over 65% in size.
condition.notes: Recombinant FEN1 flap cleavage, fluorescence, 15 min; series mostly up to 114 µM
Screen size: about 390,000 compounds; about 1,400 (0.36%) were called active. Not shown: some 2% with an inconclusive outcome. The call rests on the fitted dose curve; in most records, active means well fitted inhibition curve with a large enough effect; inconclusive means small, poorly fitted or top-dose-only effect; inactive means no such curve, though single readings can be large or run the other way. What follows is part of a selection rich in actives, with near analogues and random picks from the rest.
Outcome field: choose from active, inactive

Some entries whose results are on file:
{"columns": ["compound", "category.label"],
 "data": [
  ["COc1cc(C(=O)Nc2ccc(-n3c(C)nc4ccccc4c3=O)cc2)cc(OC)c1OC", "inactive"],
  ["O=C(COC(=O)CCCN1C(=O)c2cccc3cccc(c23)C1=O)NC1CCS(=O)(=O)C1 (stereo not given)", "inactive"]
]}

What is the recorded call for this compound in the test? CC(=O)c1ccc[n+](C(C)CCC(C)[n+]2cccc(C(C)=O)c2)c1 (stereo not given) inactive

What is the recorded call for this compound in the test? O=C1COc2ccc(-c3csc(-c4ccc(Cl)cc4)n3)cc2N1 inactive

What is the recorded call for this compound in the test? CCOC(=O)c1c(C)[nH]c(CCC(=O)NCCCN2CCN(c3cccc(Cl)c3)CC2)c1C inactive

What is the recorded call for this compound in the test? CCc1ccc2nc3sc(C(=O)Nc4nnc(CC)s4)c(N)c3cc2c1 active

What is the recorded call for this compound in the test? OC(CBr)C[n+]1cccc2cc(Br)ccc21 (stereo not given) inactive

----------
system.name: Flap endonuclease 1 (Homo sapiens) (UniProt P39748)
Sequence (P39748 whole entry, looked up): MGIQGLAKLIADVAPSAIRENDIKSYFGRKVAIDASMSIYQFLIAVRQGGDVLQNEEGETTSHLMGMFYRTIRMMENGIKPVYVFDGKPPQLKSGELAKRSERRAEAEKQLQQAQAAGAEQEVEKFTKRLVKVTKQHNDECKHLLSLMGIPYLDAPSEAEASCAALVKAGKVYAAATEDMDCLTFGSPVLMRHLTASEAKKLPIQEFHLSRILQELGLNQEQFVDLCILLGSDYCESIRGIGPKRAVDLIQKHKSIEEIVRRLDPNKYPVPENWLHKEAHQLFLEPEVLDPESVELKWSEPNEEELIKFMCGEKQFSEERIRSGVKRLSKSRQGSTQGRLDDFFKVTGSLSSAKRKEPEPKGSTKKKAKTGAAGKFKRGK
test: qHTS Assay for the Inhibitors of Human Flap endonuclease 1 (FEN1). Further: nearly all actives have a fitted effect of over 65% in size.
condition.notes: Recombinant FEN1 flap cleavage, fluorescence, 15 min; series mostly up to 114 µM
About 1,400 (0.36%) of roughly 390,000 compounds were called active. Not shown: some 2% with an inconclusive outcome. Calls follow the shape of the dose curve; as a rule, active = well fitted inhibition curve with a large enough effect; inconclusive = small, poorly fitted or top-dose-only effect; inactive = no such curve, though single readings can be large or run the other way. This excerpt belongs to a sample that is enriched for actives.
Outcome field: choose from y for active, n for inactive

Some entries whose results are on file:
{"columns": ["molecule", "system.name", "category.label"],
 "data": [
  ["O=C(Nc1ccccc1C(F)(F)F)c1nc(S(=O)(=O)Cc2ccccc2F)ncc1Cl", "Flap endonuclease 1 (Homo sapiens) (UniProt P39748)", "n"],
  ["CN(C)c1ccc(/C=N\\Nc2ccc([N+](=O)[O-])cc2[N+](=O)[O-])cc1Cl", "Flap endonuclease 1 (Homo sapiens) (UniProt P39748)", "n"],
  ["ClC/C=C/C[n+]1ccccc1Cl", "Flap endonuclease 1 (Homo sapiens) (UniProt P39748)", "n"],
  ["CN(C)Cc1cn(-c2ccccc2)nc1-c1ccccc1", "Flap endonuclease 1 (Homo sapiens) (UniProt P39748)", "n"],
  ["CN(C)C1=C2C=CC=CC2/C(=C2/C=Cc3ccccc32)C=C1 (centres undefined)", "Flap endonuclease 1 (Homo sapiens) (UniProt P39748)", "n"]
]}

What is the recorded call for this molecule in the test? CCc1ccc(NC(=O)CN2C(=O)C(c3ccccc3)=NC23CCCCCC3)cc1 n

What is the recorded call for this molecule in the test? O=C(O)C1=C/C(=C/C=[N+]2c3cc(O)c(O[C@H]4OC(CO)[C@@H](O)[C@@H](O)[C@@H]4O)cc3C[C@@H]2C(=O)[O-])C[C@H](C(=O)O)N1 (some centres undefined) n

----------
system.name: Flap endonuclease 1 (Homo sapiens) (UniProt P39748)
test: qHTS Assay for the Inhibitors of Human Flap endonuclease 1 (FEN1). Further: nearly all actives have a fitted effect of over 65% in size.
condition.notes: Recombinant FEN1 flap cleavage, fluorescence, 15 min; series mostly up to 114 µM
Protocol: The major human flap endonuclease FEN1 is an efficient structure-specific enzyme that recognizes and cleaves a 5'-unannealed DNA flap. […] Three uL of reagents (buffer in column 3 and 4 as negative control and 10 nM FEN1 in columns 1, 2, and 5-48) were dispensed into 1,536-well black solid-bottomed plate. […] The plates were then incubated for 15 min at room temperature, and 1 uL substrate (50 nM final concentration) were added to start the reaction read twice at 0 min read and 15 min on ViewLux reader. […]
Screen size: about 390,000 compounds; about 1,400 (0.36%) were called active. Roughly 2% stayed inconclusive and do not appear here. Calls come from the whole dose curve; as a rule, active = well fitted inhibition curve with a large enough effect; inconclusive = small, poorly fitted or top-dose-only effect; inactive = no such curve, though single readings can be large or run the other way. The sample as a whole holds a higher share of actives than the screen did.
Outcome field: choose from true for active, false for inactive

What is the recorded call for this compound in the test? CCCC(=O)N1CCN(c2nc3c(OC)ccc(C)c3s2)CC1 false

----------
system.name: Flap endonuclease 1 (Homo sapiens) (UniProt P39748)
test: qHTS Assay for the Inhibitors of Human Flap endonuclease 1 (FEN1). Further: nearly all actives have a fitted effect of over 65% in size.
condition.notes: Recombinant FEN1 flap cleavage, fluorescence, 15 min; series mostly up to 114 µM
Among all 390,000 compounds or so, about 1,400 (0.36%) were called active. Inconclusive results (about 2%) are left out. The call rests on the fitted dose curve; in most records, active means well fitted inhibition curve with a large enough effect; inconclusive means small, poorly fitted or top-dose-only effect; inactive means no such curve, though single readings can be large or run the other way. This is one part of a sample in which actives are shown more often than they occur.
Outcome field: choose from active, inactive

Some entries whose results are on file:
{"columns": ["compound", "category.label"],
 "data": [
  ["COc1ccc(OC)c(NC(=O)Cc2cccs2)c1", "inactive"],
  ["CN(C(=N)N)c1ccc(/C=C2\\C=Cc3ccccc32)cc1", "inactive"],
  ["Cc1ccc2ccc3c(c2n1)NS(=O)(=O)c1ccccc1-3", "inactive"],
  ["O=C(CSc1nc(=O)n(Cc2cccnc2)c2c1CCC2)Nc1ccc(F)cc1F", "inactive"],
  ["O=C(c1ccc2c(=O)n(Cc3ccco3)c(=S)[nH]c2c1)N1CCCC1", "inactive"],
  ["CCOC(=O)C1Nc2ccc(C(F)(F)F)cc2C2C=CCC12 (stereo unspecified)", "inactive"]
]}

What is the recorded call for this compound in the test? COc1ccccc1NC(=O)Nc1nnc(Cc2ccc(F)cc2)s1 inactive

What is the recorded call for this compound in the test? Oc1ccc(Cl)cc1C1C=C(c2ccc3c(c2)OCO3)NC(c2ccc(F)c(Br)c2)N1 (stereo unspecified) inactive

What is the recorded call for this compound in the test? COc1ccc(Cc2nnc(NC(=O)Cc3cccs3)s2)cc1 active

What is the recorded call for this compound in the test? CCN(CC)c1ccc(/C=C/c2c(C)cnc3ccc(C)cc23)cc1 inactive

What is the recorded call for this compound in the test? COc1ccc(CCNC(=O)C(=O)NCC(c2ccco2)S(=O)(=O)c2cccs2)cc1OC (stereo unspecified) inactive

----------
system.name: Flap endonuclease 1 (Homo sapiens) (UniProt P39748)
test: qHTS Assay for the Inhibitors of Human Flap endonuclease 1 (FEN1). Further: nearly all actives have a fitted effect of over 65% in size. Further: potency means the concentration at half of the fitted maximal effect.
condition.notes: Recombinant FEN1 flap cleavage, fluorescence, 15 min; series mostly up to 114 µM
Hit rate of the full screen: of about 390,000 compounds, about 1,400 (0.36%) were called active. About 2% were inconclusive and are not listed. For the sample, actives were picked, then their nearest neighbours and some compounds at random.
readout.label: Potency

Some solved entries appear below for comparison.
{"columns": ["compound", "system.name", "Potency"],
 "data": [
  ["COc1ccc(OC)c(NC(=O)C2CCCN(S(=O)(=O)c3ccc4c(c3)CCCC(=O)N4)C2)c1 (configuration not stated)", "Flap endonuclease 1 (Homo sapiens) (UniProt P39748)", "inactive"],
  ["CN(CCC#N)c1ccc(C=O)cc1", "Flap endonuclease 1 (Homo sapiens) (UniProt P39748)", "inactive"],
  ["CC1(OC(=O)CCc2ccccc2)C(=O)C=C2C=C(c3ccc(C#N)cc3)N(CCc3ccccn3)C=C2C1=O (configuration not stated)", "Flap endonuclease 1 (Homo sapiens) (UniProt P39748)", "inactive"],
  ["Cc1cccc(Oc2c([N+](=O)[O-])c(=O)n(C)c3ccccc23)c1", "Flap endonuclease 1 (Homo sapiens) (UniProt P39748)", "20 µM (active)"],
  ["NC(=O)Nc1ccc(/C=C/c2ccnc3ccccc23)cc1", "Flap endonuclease 1 (Homo sapiens) (UniProt P39748)", "inactive"],
  ["CC(C)(C)OC(=O)N(Cc1ccco1)S(=O)(=O)c1ccccc1Br", "Flap endonuclease 1 (Homo sapiens) (UniProt P39748)", "inactive"],
  ["Cc1cccc(C2CC(=O)Oc3c2c(=O)n(C)c2ccccc32)c1 (configuration not stated)", "Flap endonuclease 1 (Homo sapiens) (UniProt P39748)", "inactive"],
  ["O=C(NNC(=O)c1ccccc1O)c1ccccc1O", "Flap endonuclease 1 (Homo sapiens) (UniProt P39748)", "inactive"],
  ["O=[N+]([O-])c1ccc(/C=C/c2ccc3cccnc3c2)cc1", "Flap endonuclease 1 (Homo sapiens) (UniProt P39748)", "inactive"],
  ["CCCCNC(=O)Cn1c(SCc2cccc(Cl)c2)nc2ccncc21", "Flap endonuclease 1 (Homo sapiens) (UniProt P39748)", "inactive"]
]}

Look up Potency: COC(=O)CCCC1=CC2=CC(=O)C(C)(OC(=O)c3cccs3)C(=O)C2=CN1c1cccc(C#N)c1 (configuration not stated) inactive

Look up Potency: O=C(Nc1ccccc1)c1ccccc1OCc1ccccc1 inactive

Look up Potency: C/C=C/NNC(=O)Cc1ccc(OC)cc1 inactive

Look up Potency: O=C(NCc1ccccc1)c1cc(-c2cccc(Cl)c2)on1 inactive

Look up Potency: Cc1ccc(C=O)cc1Cl inactive
